Overview of reported Hypoglycemic effect (%) across a group of molecules:
Test system: KKA^y mice
experimentalDetails: Hypoglycemic and hypolipidemic (hypotriglyceridemic) activities in mice
Format: in vivo
experimentalParameters: 0.01% in powdered diet, four days, reduction rate of plasma glucose compared with non-treatment group
// units = %; emit number, no label

The examples below pair each entry with its known result.
>  <molecule>
O=C(O)c1ccc(-c2nc(-c3ccc(C(F)(F)F)cc3)cs2)cc1 [Example 55]

>  <quantitativeResult>
70

$$$$
>  <molecule>
O=C(O)c1ccc(-c2nc(-c3ccc(OC(F)(F)F)cc3)cs2)cc1 [Example 64]

>  <quantitativeResult>
68

$$$$
>  <molecule>
O=C(O)c1ccc(-c2nc(-c3ccc(C(F)(F)F)cc3)co2)cc1 [Example 9]

>  <quantitativeResult>
51

$$$$
>  <molecule>
O=C(O)c1ccc(-c2cnc(-c3ccc(C(F)(F)F)cc3)s2)cc1 [Example 113]

>  <quantitativeResult>
45

$$$$

Moving on to another molecule below.
IN: Report Hypoglycemic effect (%) under test system KKA^y mice for O=C(O)c1ccc(-c2cnc(-c3ccc(C(F)(F)F)cc3)o2)cc1 [Example 110] .
OUT: 73

Source listed as patent US6545009B1.
